system: CN0375-F725-PDC KRAS spheroid viability; test: Anticancer human tumor CN0375-F725-PDC patient-derived colon carcinoma cell line growth inhibition [KRAS2]; conditions: second compound 0.1 µM; first compound 0.316 µM; active compounds read low; spheroids with HUVEC and MSC;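 also: spheroids exposed to agents for 7 days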
Define the label as MET when viability, T/C is strictly less than 90% and as NOT MET in all remaining cases.

Study these solved cases before continuing.
molecule: Cn1nccc1Nc1nccc(-c2cc3c(s2)C(C)(C)N(CCN2CCOCC2)C3=O)n1 + C=CC(=O)N1CCN(c2nc(=O)n(-c3c(C)ccnc3C(C)C)c3nc(-c4c(O)cccc4F)c(F)cc23)C(C)C1
measured-on: CN0375-F725-PDC KRAS spheroid viability
classification: MET
--
molecule: CC(=O)OC12COC1CC(O)C1(C)C(=O)C(O)C3=C(C)C(OC(=O)C(O)C(NC(=O)OC(C)(C)C)c4ccccc4)CC(O)(C(OC(=O)c4ccccc4)C21)C3(C)C (stereo unspecified) + CC1OCC2(CCN(c3cnc(Sc4ccnc(N)c4Cl)c(N)n3)CC2)C1N
measured-on: CN0375-F725-PDC KRAS spheroid viability
classification: MET
--
molecule: CC1COCCN1c1cc(-c2ccnn2C)c2ccnc(-c3ccn[nH]3)c2n1 (stereo unspecified) + C=CC(=O)N1CCN(c2nc(OCC3CCCN3C)nc3c2CCN(c2cccc4cccc(C)c24)C3)CC1CC#N
measured-on: CN0375-F725-PDC KRAS spheroid viability
classification: MET
--
molecule: COc1cc2nccc(Oc3ccc(NC(=O)C4(C(=O)Nc5ccc(F)cc5)CC4)cc3)c2cc1OC + CNCc1ccccc1-c1csc(C(C)Nc2nc(C)nc3cc(OC)c(OC)cc23)c1
measured-on: CN0375-F725-PDC KRAS spheroid viability
classification: MET
--
molecule: O=C(c1cc(Cc2n[nH]c(=O)c3ccccc23)ccc1F)N1CCN(C(=O)C2CC2)CC1 + CNCc1ccccc1-c1csc(C(C)Nc2nc(C)nc3cc(OC)c(OC)cc23)c1
measured-on: CN0375-F725-PDC KRAS spheroid viability
classification: NOT MET
--
molecule: CC(=O)OC12COC1CC(O)C1(C)C(=O)C(O)C3=C(C)C(OC(=O)C(O)C(NC(=O)OC(C)(C)C)c4ccccc4)CC(O)(C(OC(=O)c4ccccc4)C21)C3(C)C (stereo unspecified) + C=CC(=O)N1CCN(c2nc(=O)n(-c3c(C)ccnc3C(C)C)c3nc(-c4c(O)cccc4F)c(F)cc23)C(C)C1
measured-on: CN0375-F725-PDC KRAS spheroid viability
classification: MET

INPUT: In the record for CC1OCC2(CCN(c3cnc(Sc4ccnc(N)c4Cl)c(N)n3)CC2)C1N (stereo unspecified) + CNCc1ccccc1-c1csc(C(C)Nc2nc(C)nc3cc(OC)c(OC)cc23)c1 , is viability, T/C less than 90%?
OUTPUT: MET

INPUT: Would you kindly verify if viability, T/C of CCN1CCN(Cc2ccc(Nc3ncc(F)c(-c4cc(F)c5nc(C)n(C(C)C)c5c4)n3)nc2)CC1 + C=CC(=O)N1CCN(c2nc(=O)n(-c3c(C)ccnc3C(C)C)c3nc(-c4c(O)cccc4F)c(F)cc23)C(C)C1 is strictly less than 90%?
OUTPUT: NOT MET
